- Test system: TK-10
- PROTOCOL NOTES: NCI tumour cell line growth inhibition, 48 h
The source made the active and inactive calls. Rule as the data show it: active = GI50 up to about 1.1 µM and inactive = higher.
QUANTITY MEASURED: GI50

Incoming: What value of GI50 has been recorded for this entry: CSc1nc2c(nc(C)c(=O)n2C2OCC(OC(C)=O)C(OC(C)=O)C2OC(C)=O)c(=O)[nH]1 (stereo not given)
Outgoing: > 100 µM (inactive)

Incoming: Again, but for C=C1CC[C@@H]2[C@](C)(COC(=O)CCC(=O)OC)CCC[C@@]2(C)[C@@H]1CCC1=CC(=O)OC1
Outgoing: > 100 µM (inactive)

Incoming: Again, but for CN(C(=N)c1ccccc1)c1ccccc1
Outgoing: > 100 µM (inactive)

Incoming: Again, but for O=C(NNC(=O)c1cc(/C=C/c2cccc([N+](=O)[O-])c2)nc(S)n1)Nc1ccc(Cl)cc1
Outgoing: > 100 µM (inactive)

Incoming: Again, but for C=CCN(c1cc(OC)c2c(c1[N+](=O)[O-])C(C)(SC)C(=O)N2)S(C)(=O)=O (stereo not given)
Outgoing: 50.5 µM (inactive)

###

- Test system: HL-60
- PROTOCOL NOTES: NCI tumour cell line growth inhibition, 48 h
Active and inactive are the calls of the source. No stated cut-off is given here; in the data, active = GI50 up to about 1.1 µM and inactive = higher.
QUANTITY MEASURED: GI50

Incoming: Request - read-out GI50 | tested on HL-60 | compound C=C1c2ccccc2Oc2nc3nc(N)c(C#N)c(N)c3c(N)c21
Outgoing: 21.6 µM (inactive)

Incoming: Again, but for Nc1ccc(C(=O)N/C(=C\c2cccc([N+](=O)[O-])c2)c2nc3ccccc3[nH]2)cc1
Outgoing: > 81.7 µM (inactive)

Incoming: Again, but for O=C(CC(C(=O)c1cccs1)c1ccsc1)c1ccc(Cl)s1 (stereo not given)
Outgoing: 75.2 µM (inactive)

Incoming: Again, but for CC(=O)c1c(O)ccc2c1CC(CC=O)O2 (stereo not given)
Outgoing: > 100 µM (inactive)

Incoming: Again, but for CCOC(=O)[C@H]1C[C@]23CN(C(=O)OC(C)(C)C)CC[C@H]2CCC2(SCCCS2)[C@@H]3N1C
Outgoing: 20.7 µM (inactive)

###

- Tested on: SW-620
- PROTOCOL NOTES: NCI tumour cell line growth inhibition, 48 h
Calls of active or inactive are those of the source. Cut-off read from the data, not from the text of the source: active = GI50 up to about 1.1 µM and inactive = higher.
I'd appreciate it if you could supply GI50 values for the items below.

Incoming: Request - read-out GI50 | tested on SW-620 | molecule O=C1CC(O)(c2ccccc2)C(c2ccccc2)=C1c1ccccc1 (stereo unspecified)
Outgoing: 94.4 µM (inactive)

Incoming: Again, but for O=C(O)c1ccc(Cc2ccccc2C(=O)O)cc1
Outgoing: > 100 µM (inactive)

Incoming: Again, but for CN(C(=O)Cc1ccc(Cl)c(Cl)c1)[C@@H]1CCCC[C@H]1[N+]1(C)CC=CC1
Outgoing: > 100 µM (inactive)

Incoming: Again, but for COc1ccc(/C(=N/NC(N)=O)C2(O)C(=O)Nc3ccc([N+](=O)[O-])cc32)cc1 (stereo unspecified)
Outgoing: 22.8 µM (inactive)

Incoming: Again, but for CSc1csc(-c2ccc(-c3ccc(-c4cc(SC)cs4)s3)s2)c1
Outgoing: > 100 µM (inactive)

Incoming: Again, but for Cc1ccc(-c2c(N)[n+]([O-])c3ccccc3[n+]2[O-])cc1
Outgoing: 5.25 µM (inactive)

Incoming: Again, but for CCC(=O)OCOc1ccc(/C=C2\CCC(CN(C)C)C2=O)cc1 (stereo unspecified)
Outgoing: 2.32 µM (inactive)

Incoming: Again, but for CCCC(=O)C1=C(O)C(Cc2c(O)c(C)c(O)c(C(=O)CCC)c2O)=C(O)C(C)(C)C1=O
Outgoing: 13.9 µM (inactive)

Incoming: Again, but for COc1ccc(/C=C2\CCNC2=O)cc1
Outgoing: > 100 µM (inactive)

Incoming: Again, but for CSC1=N/C(=C\c2ccco2)C(=O)N1CN1CCCCC1
Outgoing: 36.1 µM (inactive)

Incoming: Again, but for O=NN1CCN=C1c1ccc([N+](=O)[O-])cc1
Outgoing: > 100 µM (inactive)

###

- Test system: MDA-N
- PROTOCOL NOTES: NCI tumour cell line growth inhibition, 48 h
The source made the active and inactive calls. Rule as the data show it: active = GI50 up to about 1.1 µM and inactive = higher.
Answer with one of the outcomes given here: yes (1) (active), no (0) (inactive)

Incoming: Please let me know the test result on file for COC1C(O)=C2C(=O)O/C(C)=C/C=C/C=C/C=C\CC(c3ccccc3)NC(=O)\C=C/C=C\C=C\C=C\[C@@]2(C)[C@@H]1O (stereo partly specified) .
Outgoing: yes (1)

Incoming: Again, but for c1ccc(CSc2ccccc2CN2CCN(Cc3ccccc3SCc3ccccc3)CCN(Cc3ccccc3SCc3ccccc3)CC2)cc1
Outgoing: no (0)

Incoming: Again, but for C[C@]12CC[C@@H]3c4ccc(O)cc4CC[C@H]3[C@@H]1C/C(=C\c1ccncc1)C2=O
Outgoing: no (0)

Incoming: Again, but for CCC(=O)OCOc1ccc(/C=C2\CCC(CN(C)C)C2=O)cc1 (stereo unspecified)
Outgoing: no (0)

Incoming: Again, but for Clc1n[nH]c2ccccc12
Outgoing: no (0)

Incoming: Again, but for Oc1ccc(-c2nc3cc(C(F)(F)F)ccc3s2)cc1
Outgoing: no (0)

Incoming: Again, but for COc1ccc(C(=O)/C=C/c2cc(O)c(O)cc2F)c(OC)c1
Outgoing: no (0)

Incoming: Again, but for CCOC(=O)c1cccc(NC(=O)CI)c1
Outgoing: yes (1)

Incoming: Again, but for COc1ccc(/C=N/Nc2nnc3c(n2)c2ccccc2c2nn(-c4ccccc4Cl)nc23)cc1
Outgoing: no (0)

Incoming: Again, but for C[N+]1(C)C/C(=C\C=C\c2ccccc2)C(=O)/C(=C/C=C/c2ccccc2)C1
Outgoing: no (0)

Incoming: Again, but for CN(C)c1ccc(/C=C2\C[C@H]3[C@@H]4CC=C5C[C@@H](N6CCCC6)CC[C@]5(C)[C@H]4CC[C@]3(C)[C@H]2O)cc1
Outgoing: yes (1)

Incoming: Again, but for O=C(NC(=O)c1ccccc1[N+](=O)[O-])Nc1ccc(Oc2ncc(Br)cn2)c(Cl)c1
Outgoing: yes (1)

Incoming: Again, but for COC(C(O)CO)C(O)C(O)C(=O)NNc1ccccc1 (stereo unspecified)
Outgoing: no (0)

Incoming: Again, but for C/C(=N\Nc1nc2ccccc2[nH]1)c1cccc[n+]1[O-]
Outgoing: no (0)

Incoming: Again, but for CCOC(=O)c1nc2cc(C(F)(F)F)ccc2nc1Nc1ccc(Cl)c(Cl)c1
Outgoing: no (0)

Incoming: Again, but for C[Si](C)(C)C#Cc1cc(-c2nc3ccccc3s2)ccc1N
Outgoing: no (0)

Incoming: Again, but for COC12COC(=O)C1C(c1ccc3c(c1)OCO3)c1cc3c(cc1O2)OCO3 (stereo unspecified)
Outgoing: no (0)

Incoming: Again, but for CSc1ncnc2c1cnn2CCCCO
Outgoing: no (0)

Incoming: Again, but for Cc1cc([C@H](C#N)c2nc3ccccc3s2)nc(Cl)n1
Outgoing: no (0)

Incoming: Again, but for COC(=O)[C@H](Cc1ccccc1)NC(=O)N1CCCN(C(=O)N[C@@H](Cc2ccccc2)C(=O)OC)CCCN(C(=O)N[C@@H](Cc2ccccc2)C(=O)OC)CCC1
Outgoing: no (0)

Incoming: Again, but for CC1(O)OC(=O)C2=C1CCC1C2CCC2(C)C(O)CCC12 (stereo unspecified)
Outgoing: no (0)

Incoming: Again, but for O=C(O)c1cnc2c(ccc3ncc(C(=O)O)c(O)c32)c1O
Outgoing: no (0)

Incoming: Again, but for CCOC(OCC)N1C(=O)C2(C(OCC)OCC)CC3C(OC(=O)N3N)c3cccc1c32 (stereo unspecified)
Outgoing: no (0)

Incoming: Again, but for Cc1cccc(NC(=S)Nc2cccc(Cl)c2)n1
Outgoing: no (0)

Incoming: Again, but for COC(=O)c1ccc(C)cc1CC1Cc2c(C)cccc2C1=O (stereo unspecified)
Outgoing: no (0)

Incoming: Again, but for COC(=O)[C@H](Cc1ccccc1)NC(=O)c1ccc(CNC(=O)/C=C/c2ccc(OCc3ccccc3)cc2)cc1
Outgoing: no (0)

Incoming: Again, but for CSC(=O)c1sc(SC)[n+](-c2ccccc2)c1O
Outgoing: no (0)

Incoming: Again, but for CN(C)c1ccc(C(=C2C=CC(=[N+](C)C)C=C2)c2c(O)c(S(=O)(=O)[O-])cc3cc(S(=O)(=O)O)ccc23)cc1
Outgoing: no (0)

Incoming: Again, but for CNC(=S)N/N=C(\C)c1ccc(OC)cc1O
Outgoing: no (0)

Incoming: Again, but for CSC1=N/C(=C\c2ccco2)C(=O)N1CN1CCCCC1
Outgoing: no (0)

Incoming: Again, but for CN(C(=O)Cc1ccc(Cl)c(Cl)c1)[C@@H]1CCCC[C@H]1[N+]1(C)CC=CC1
Outgoing: no (0)

Incoming: Again, but for Cc1ccc(S(=O)(=O)NC(=O)NC(C(=O)O)C(C)O)cc1 (stereo unspecified)
Outgoing: no (0)

Incoming: Again, but for O=C(Nc1ccc2cc3ccccc3cc2c1)c1cc2c(cc1Cl)Sc1nccn1S2(=O)=O
Outgoing: no (0)

Incoming: Again, but for Cn1c(CCC2(C)Cc3ccccc3C(=O)O2)cc2ccccc2c1=O (stereo unspecified)
Outgoing: no (0)

Incoming: Again, but for COC(=O)C/N=C1\NC(=S)N(Cc2ccc(OC)cc2)C12CCCC2
Outgoing: no (0)

Incoming: Again, but for NC1CC(=O)c2cc(Br)sc21 (stereo unspecified)
Outgoing: no (0)

Incoming: Again, but for CC(=O)C(C)C(=O)N1C(=O)N(C)C2(C)N(C)C(=O)NC12C (stereo unspecified)
Outgoing: no (0)

Incoming: Again, but for CSc1csc(-c2ccc(-c3ccc(-c4cc(SC)cs4)s3)s2)c1
Outgoing: no (0)

Incoming: Again, but for C=C1C(=O)O[C@@H]2C(=O)[C@@H](C)CCC/C(C)=C/CC[C@@]3(C)O[C@@H]3C[C@@H]12
Outgoing: no (0)

Incoming: Again, but for COc1ccc([C@H]2C=C(c3cc(F)c(Cl)cc3Cl)NC(=S)N2)cc1
Outgoing: no (0)

Incoming: Again, but for CC(C)N(CC(=O)O)CC(=O)O
Outgoing: no (0)

Where these numbers come from: ChEMBL document CHEMBL1201862
